target: UniProt P08684; assay: Vivid CYP450 screening kit, recombinant CYP 3A4 activity; format: biochemical; conditions: recombinant CYP3A4 BACULOSOMES, probe Vivid BOMR
parameter: inhibition at 30 min, 1 µM (%)
Kindly provide the numeric value in % only, without the unit symbol.

Query :: State its inhibition at 30 min, 1 µM on UniProt P08684: `O=C(/C=C/c1ccc(O)cc1)CC(=O)/C=C/c1ccc(O)cc1`
Result :: 10

====

test: Pharmacokinetics of oral EVL in rats without and with coadministered curcumin; format: in vivo; details: male, Sprague-Dawley, rat, whole blood, po, 0.5 mg/kg, AUC0-540, area under the blood concentration-time curve from 0 to 540 min, oral EVL 0.5 mg/kg + curcumin 50 mg/kg
parameter: AUC(0-t)
Please answer using the number first and the unit second.

Query :: // AUC(0-t) lookup, key: `CO[C@H]1C[C@@H]2CC[C@@H](C)[C@@](O)(O2)C(=O)C(=O)N2CCCC[C@H]2C(=O)O[C@H]([C@H](C)C[C@@H]2CC[C@@H](OCCO)[C@H](OC)C2)CC(=O)[C@H](C)/C=C(\C)[C@@H](O)[C@@H](OC)C(=O)[C@H](C)C[C@H](C)/C=C/C=C/C=C/1C`
Result :: 8.03 ng·h/mL

====

biological target: CYP3A4 (Homo sapiens); assay: Vivid CYP450 screening kit, recombinant CYP 3A4 activity; type: biochemical; settings: recombinant CYP3A4 BACULOSOMES, probe Vivid BOMR
parameter: inhibition at 30 min, 0.5 µM (%)
Kindly provide the numeric value in % only, without the unit symbol.

Query :: // inhibition at 30 min, 0.5 µM lookup, key: `O=C(/C=C/c1ccc(O)cc1)CC(=O)/C=C/c1ccc(O)cc1`
Result :: 10

====

experiment: Pharmacokinetics of oral EVL in rats without and with coadministered curcumin; assay type: in vivo; conditions: male, Sprague-Dawley, rat, whole blood, po, 0.5 mg/kg, AUC0-540, area under the blood concentration-time curve from 0 to 540 min, oral EVL 0.5 mg/kg + curcumin 100 mg/kg
parameter: AUC(0-t) (ng·h/mL)
Kindly provide the numeric value in ng·h/mL only, without the unit symbol.

Query :: // AUC(0-t) lookup, key: `CO[C@H]1C[C@@H]2CC[C@@H](C)[C@@](O)(O2)C(=O)C(=O)N2CCCC[C@H]2C(=O)O[C@H]([C@H](C)C[C@@H]2CC[C@@H](OCCO)[C@H](OC)C2)CC(=O)[C@H](C)/C=C(\C)[C@@H](O)[C@@H](OC)C(=O)[C@H](C)C[C@H](C)/C=C/C=C/C=C/1C`
Result :: 7.77

====

Assign inhibition at 30 min, 10 µM to each entry below.
target: CYP3A4 (Homo sapiens, UniProt P08684); experiment: Vivid CYP450 screening kit, recombinant CYP 3A4 activity; format: biochemical; conditions: recombinant CYP3A4 BACULOSOMES, probe Vivid BOMR
Sequence (P08684 whole entry): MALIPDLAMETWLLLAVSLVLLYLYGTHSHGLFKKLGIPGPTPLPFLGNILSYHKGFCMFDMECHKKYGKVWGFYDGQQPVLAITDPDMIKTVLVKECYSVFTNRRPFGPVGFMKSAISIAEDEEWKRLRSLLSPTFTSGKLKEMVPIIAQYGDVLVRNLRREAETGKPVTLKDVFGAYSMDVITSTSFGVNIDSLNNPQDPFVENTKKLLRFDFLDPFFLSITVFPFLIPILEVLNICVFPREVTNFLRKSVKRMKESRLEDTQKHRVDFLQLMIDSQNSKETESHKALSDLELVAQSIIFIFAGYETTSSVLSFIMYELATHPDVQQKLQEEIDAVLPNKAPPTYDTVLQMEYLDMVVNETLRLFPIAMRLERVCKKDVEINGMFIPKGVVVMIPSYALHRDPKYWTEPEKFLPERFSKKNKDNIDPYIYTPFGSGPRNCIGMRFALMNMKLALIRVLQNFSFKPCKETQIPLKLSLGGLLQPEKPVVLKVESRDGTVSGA
Kindly provide the numeric value in % only, without the unit symbol.

Query :: // inhibition at 30 min, 10 µM lookup, key: `COc1cc(/C=C/C(O)=C/C(=O)/C=C/c2ccc(O)cc2)ccc1O`
Result :: 53

Query :: // inhibition at 30 min, 10 µM lookup, key: `COc1cc(/C=C/C(=O)CC(=O)/C=C/c2ccc(O)c(OC)c2)ccc1O`
Result :: 90

All values here come from paper PMC5377466.
